assay: gradient 5% acetonitrile 3 min, to 50% in 2 min, to 85% in 15 min, held 3 min, 100 µL/min; settings: column: Zorbax Extend-C18 2.1 x 50 mm; eluents: water / acetonitrile, 0.1% formic acid
The reader will find reported RP-LC retention time values listed item by item below.
Only the number, expressed in s, is required.

Examples with answers:
INSERT INTO results (compound, scale_unit, obs_value) VALUES
  ('Cc1nc(-c2csc(S(=O)(=O)N3CCCC(C(=O)Nc4cccc(Cl)c4C)C3)c2)no1 (stereo not drawn)', 's', 1020),
  ('CCCCn1cc(S(=O)(=O)Nc2cccc(Cl)c2)c2cccnc21', 's', 1020);

Next compound, please.
Using the record for CCS(=O)(=O)N1CCCc2cc(C(=O)Nc3ccccc3Br)ccc21 , report its RP-LC retention time.
986
